molecular target: recombinant human NK3 receptor (Homo sapiens); construct: expressed in transfected cells; host or cells: HEK293 cells, transient expression; membrane preparation; assay: [3H]SR142801 competition binding assay; details: [3H]SR142801, membranes of HEK293 cells transiently expressing recombinant human NK3 receptor; read-out: hNK3 Ki
pKi: −log10 of the molar value.
attribute_measured: pKi

Asked: Dear colleague, please send me the reported pKi for Cc1ccc(CN(C)C(=O)C(C)(CCN2CCC(NS(C)(=O)=O)CC2)c2ccc(Cl)c(Cl)c2)cc1 (stereo not drawn) [Example 6] when you can.
Given back: 7.11

Asked: Dear colleague, please send me the reported pKi for CN(Cc1ccc(Cl)c(Cl)c1)C(=O)C(CCN1CCC(NS(C)(=O)=O)CC1)c1ccc(Cl)c(Cl)c1 (stereo not drawn) [Example 34] when you can.
Given back: 7.11

Asked: Dear colleague, please send me the reported pKi for CN(Cc1ccc(C(F)(F)F)cc1)C(=O)C(CCN1CCC(NS(C)(=O)=O)CC1)c1ccc(Cl)c(Cl)c1 (stereo not drawn) [Example 33] when you can.
Given back: 7.09

###

Target: recombinant human NK3 receptor (Homo sapiens, UniProt P29371)
Construct: expressed in transfected cells; host or cells: HEK293 cells, transient expression; membrane preparation
Sequence (P29371 1-465): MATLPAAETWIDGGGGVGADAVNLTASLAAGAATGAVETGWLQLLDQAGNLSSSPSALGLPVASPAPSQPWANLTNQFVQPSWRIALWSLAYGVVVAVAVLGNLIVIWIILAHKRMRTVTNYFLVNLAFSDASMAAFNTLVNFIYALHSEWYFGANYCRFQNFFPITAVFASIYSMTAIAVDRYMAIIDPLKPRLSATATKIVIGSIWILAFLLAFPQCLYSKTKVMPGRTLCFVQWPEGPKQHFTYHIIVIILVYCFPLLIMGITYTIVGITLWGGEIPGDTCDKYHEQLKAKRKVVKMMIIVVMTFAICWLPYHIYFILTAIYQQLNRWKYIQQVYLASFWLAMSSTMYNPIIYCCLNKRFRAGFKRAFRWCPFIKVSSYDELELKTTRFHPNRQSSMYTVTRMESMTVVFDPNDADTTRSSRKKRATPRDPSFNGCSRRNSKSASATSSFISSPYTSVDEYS
Assay: [3H]SR142801 competition binding assay
Conditions: [3H]SR142801, membranes of HEK293 cells transiently expressing recombinant human NK3 receptor; read-out: hNK3 Ki
pKi: −log10 of the molar value.
attribute_measured: pKi

Asked: Dear colleague, please send me the reported pKi for CC(CCN1CCC(N2CCCC2=O)CC1)(C(=O)NC(c1ccc(F)cc1)C(F)(F)F)c1ccc(Cl)c(Cl)c1 (stereo not shown) [Example 96] when you can.
Given back: 8.14

Asked: Dear colleague, please send me the reported pKi for CN(Cc1ccc(-c2ccncc2)cc1)C(=O)C(C)(CCN1CCC(NS(C)(=O)=O)CC1)c1ccc(Cl)c(Cl)c1 (stereo not shown) [Example 20] when you can.
Given back: 6.69

Asked: Dear colleague, please send me the reported pKi for CN(Cc1ccc(Cl)cc1)C(=O)C(CCN1CCC(N2CCCC2=O)CC1)c1ccccc1 (stereo not shown) [Example 114] when you can.
Given back: 6.25

Asked: Dear colleague, please send me the reported pKi for CN(Cc1ccc(F)c(C(F)(F)F)c1)C(=O)C(F)(CCN1CCC(N(C)S(C)(=O)=O)CC1)c1ccc(Cl)c(Cl)c1 (stereo not shown) [Example 55] when you can.
Given back: 7.63

Asked: Dear colleague, please send me the reported pKi for CN(Cc1ccccc1Cl)C(=O)C(C)(CCN1CCC(NS(C)(=O)=O)CC1)c1ccc(Cl)c(Cl)c1 (stereo not shown) [Example 18] when you can.
Given back: 7.48

a. CN(Cc1ccc(F)c(C(F)(F)F)c1)C(=O)C(C)(CCN1CCC(N(C)S(C)(=O)=O)CC1)c1ccc(Cl)c(Cl)c1 (stereo not shown) [Example 47]
b. CC[C@@H](NC(=O)C(C)(CCN1CCC(N(CC)C(C)=O)CC1)c1ccc(Cl)c(Cl)c1)c1ccccc1 (stereo partly shown) [Example 169]
Asked: Would you mind telling me which has the lower recorded pKi between a and b ? Identify your pick by its label.
Given back: b

1. CCN(C1CCN(CCC(C)(C(=O)N(C)Cc2ccc(Cl)c(Cl)c2)c2ccc(Cl)c(Cl)c2)CC1)S(C)(=O)=O (stereo not shown) [Example 70]
2. CC(CCN1CCC(NS(C)(=O)=O)CC1)(C(=O)NCc1ccc(C#N)cc1)c1ccc(Cl)c(Cl)c1 (stereo not shown) [Example 27]
3. CC(=O)N(C)C1CCN(CCC(C)(C(=O)N(C)Cc2cccc(Cl)c2)c2ccc(Cl)c(Cl)c2)CC1 (stereo not shown) [Example 105]
4. CC(=O)NC1CCN(CCC(C)(C(=O)N[C@H](CO)c2ccc(F)cc2)c2ccc(Cl)c(Cl)c2)CC1 (single isomer, unassigned; diastereoisomer 2) [Example 155]
5. CC(CCN1CCC(NS(C)(=O)=O)CC1)(C(=O)NCc1cc(C(F)(F)F)cc(C(F)(F)F)c1)c1ccc(Cl)c(Cl)c1 (stereo not shown) [Example 4]
Asked: Rank the 5 compounds: largest pKi first, smallest last. Response field: labels, in requested order.
Given back: 1, 3, 4, 5, 2
